# system_under_test: HIV-1 Env of pseudovirus isolate MGRM-G-015 (subtype G) (HIV-1)
# experiment_summary: cell-based or functional assay
readout_kind: IC50

# IC50 of PGT-130 (antibody, V domains shown) VH: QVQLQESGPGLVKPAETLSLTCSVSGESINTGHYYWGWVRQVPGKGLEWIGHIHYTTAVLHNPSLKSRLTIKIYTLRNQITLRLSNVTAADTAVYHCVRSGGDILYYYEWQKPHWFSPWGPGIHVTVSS VL: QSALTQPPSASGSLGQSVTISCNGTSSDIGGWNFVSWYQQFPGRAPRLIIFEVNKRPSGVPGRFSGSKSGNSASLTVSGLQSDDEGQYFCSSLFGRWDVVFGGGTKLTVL = > 50 µg/mL
